From: patent US20140348836A1

For each record, write down the corresponding EC50 of MHC II up-regulation on monocyte-derived dendritic cells (FACS).
# Target Or Test System: human CD40 on cells (human, UniProt P25942 21-277)
# Sequence (P25942 21-277): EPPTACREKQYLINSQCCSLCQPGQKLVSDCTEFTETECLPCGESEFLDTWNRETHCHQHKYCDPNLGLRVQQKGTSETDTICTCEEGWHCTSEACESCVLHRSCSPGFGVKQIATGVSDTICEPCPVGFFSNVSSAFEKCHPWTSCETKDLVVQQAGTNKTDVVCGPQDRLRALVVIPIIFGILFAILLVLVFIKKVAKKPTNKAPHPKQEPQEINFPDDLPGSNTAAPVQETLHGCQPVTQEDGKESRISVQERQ
# Assay Explanation: cell-based or functional assay
Give bare numbers, in µg/mL.

State recorded EC50 of MHC II up-regulation on monocyte-derived dendritic cells (FACS) for all listed binders.
1. Antibody B44 (antibody, V domains shown, Parent agonistic anti-CD40 antibody from the n-CoDeR library; Run alongside the IgG clones as 'B44 antibody' and detected with anti-human Ig on RAMOS cells; also called B44 antibody; original anti-CD40 antibody) VH: EVQLLESGGGLVQPGGSLRLSCAASGFTFSTYGMHWVRQAPGKGLEWLSYISGGSSYIFYADSVRGRFTISRDNSENALYLQMNSLRAEDTAVYYCARILRGGSGMDLWGQGTLVTVSS VL: QSVLTQPPSASGTPGQRVTISCTGSSSNIGAGYDVYWYQQLPGTAPKLLIYGNINRPSGVPDRFSGSKSGTSASLAISGLRSEDEADYYCAAWDDSLSGLVFGGGTKLTVLG
2. Antibody clone H11 (antibody, human IgG1, lambda, V domains shown, also called H11 ANTI-CD40 ANTIBODY) VH: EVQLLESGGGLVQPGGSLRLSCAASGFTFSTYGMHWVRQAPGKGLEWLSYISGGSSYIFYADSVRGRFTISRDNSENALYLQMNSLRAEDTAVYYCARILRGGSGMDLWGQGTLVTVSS VL: QSVLTQPPSASGTPGQRVTISCTGSSSNIGAGYNVYWYQQLPGTAPKLLIYGNINRPSGVPDRFSGSKSGTSASLAISGLRSEDEADYYCAAWDGGLLGLVFGGGTKLTVLG
3. Antibody clone A4 (antibody, human IgG1, lambda, V domains shown, Tested as purified antibody; full chains are assembled here from VH/VL plus these; also called A4 ANTI-CD40 ANTIBODY) VH: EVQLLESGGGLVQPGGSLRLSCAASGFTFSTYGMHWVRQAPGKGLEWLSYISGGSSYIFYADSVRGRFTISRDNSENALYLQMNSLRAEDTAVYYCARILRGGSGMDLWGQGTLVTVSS VL: QSVLTQPPSASGTPGQRVTISCTGSTSNIGAGYKVYWYQQLPGTAPKLLIYGNINRPSGVPDRFSGSKSGTSASLAISGLRSEDEADYYCAAWDDSLSGLVFGGGTKLTVLG
4. Antibody clone C4 (antibody, human IgG1, lambda, V domains shown, Same VL changes as A4; VH carries S63T; also called C4 ANTI-CD40 ANTIBODY) VH: EVQLLESGGGLVQPGGSLRLSCAASGFTFSTYGMHWVRQAPGKGLEWLSYISGGSSYIFYADTVRGRFTISRDNSENALYLQMNSLRAEDTAVYYCARILRGGSGMDLWGQGTLVTVSS VL: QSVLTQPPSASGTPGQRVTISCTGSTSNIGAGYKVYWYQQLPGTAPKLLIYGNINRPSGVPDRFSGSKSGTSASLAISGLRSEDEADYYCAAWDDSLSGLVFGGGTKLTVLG

A:
[0.51, 0.22, 0.14, 0.04]
